Data origin: the supplement of paper PMC10567573

B1: CHIT1 (parent)
chain: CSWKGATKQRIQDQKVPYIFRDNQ

variants of: B1; experiment: protein stability index of a GFP-peptide fusion (GPS, HEK-293T) (PSI 1-6); higher = more stable; details: c terminus: a fixed tail appended;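 further: lentivirally expressed fusions sorted by FACS into six bins by GFP to DsRed ratio, PSI derived from sequencing read proportions per bin multiplied by bin number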
measurementLabel: protein stability index
Please give only the number in your answer, with no unit.

Inquiry: Given the entry F20R , report its measured protein stability index.
Reply text: 3.08

Inquiry: Given the entry W3H , report its measured protein stability index.
Reply text: 3.06

Inquiry: Given the entry K15C , report its measured protein stability index.
Reply text: 2.99
